Entries below carry reported pIC50 on Dipeptidyl peptidase 2 (Homo sapiens, UniProt Q9UHL4).
pIC50: −log10 of the molar value.
assay.endpoint: pIC50

These solved cases illustrate the format of a correct answer.
CC[C@H](C)[C@H](N)C(=O)N1CCC(N=[N+]=[N-])C1 (stereo partly drawn) | 4.37
NCCC[C@H](N)C(=O)N1CCCC1 | 5.01
C[C@@H](O)[C@H](N)C(=O)N1CCCC1 | 3.64
CC[C@H](C)[C@H](N)C(=O)N1CCC(Cl)C1 (stereo partly drawn) | 4.52
NCCCC[C@H](N)C(=O)N1CCCc2ccccc21 | 3.41
CC[C@H](C)[C@H](N)C(=O)N1CC=CCC1 | 4.28

a: N#C[C@@H]1C[C@H](N=[N+]=[N-])CN1C(=O)[C@@H](N)CCCCNC(=O)OCc1ccccc1
b: CC(C)[C@H](N)C(=O)N1CSC[C@H]1B(O)O
Between these two entries, a and b , state which has the higher pIC50. Your answer should be the label attached to the chosen record.
b
(b: 7.07, a: 6.46)
